# Test system: MDA-MB-231 breast
# MEASUREMENT_NOTES: NCI-60 one-dose screen, 48 h
# CONDITION_PARAMETERS: 10 µM unless noted
This is part of a sample that, as a whole, favours compounds with a hit. Of some 83,000 tested, about 20% had one in any assay. Active and inactive are the calls of the source. Rule for the calls: active = growth percent below 10; inactive = the rest.
Give your call using only these classes: t for active, f for inactive

• COc1ccc(-c2nc(N)ncc2Oc2ccccc2OC)c(O)c1 = f
• COc1ccc(Br)cc1NC(=O)Nc1cccc2c1ccn2Cc1ccnc(N)c1 = t
• COc1ccc2c(CCCCC(c3ccccc3)c3ccccc3)c3[n+](cc2c1OC)CCc1cc2c(cc1-3)OCO2 = t

Inquiry: What call does the record list for CN(C)CCn1c(=O)c2c3cc4c(cc3n(CCN(C)C)c2c2ccc(Cl)cc21)OCO4 ?
Reply text: f

Inquiry: Can you handle O=[N+]([O-])c1cc(Br)cc2c1[nH]c1ccc(Br)cc12 next?
Reply text: f

Inquiry: Now consider Cc1cc(C)n(CC(=O)Nc2ccc(-c3nc4ccccc4s3)cc2)n1 .
Reply text: f

Inquiry: How about Oc1ccc(/C=N/Nc2nnc(N/N=C/c3ccc(O)cc3O)c3ccccc23)c(O)c1 ?
Reply text: t

Inquiry: Proceed to CN1CCN(c2nc(C3=C(c4c[nH]c5ccccc45)C(=O)NC3=O)c3ccccc3n2)CC1
Reply text: f

Inquiry: What about this compound? CCN1/C(=C/C=C/c2n(-c3ccccc3)c3ccc(-c4nc5ccccc5s4)cc3[n+]2CC)N(c2ccccc2)c2ccc(-c3nc4ccccc4s3)cc21
Reply text: f

Inquiry: What do you have for C/C(=C(/c1ccc(Cl)cc1)c1ccc(OCCN2CCCCC2)cc1)c1ccccc1 ?
Reply text: f

###

growth values, listed per item
# Tested on: SK-MEL-5 melanoma
# MEASUREMENT_NOTES: NCI-60 one-dose screen, 48 h (100 = growth as untreated, 0 = no growth, -100 = all killed)
# CONDITION_PARAMETERS: 10 µM unless noted
The panel holds about 83,000 compounds, 20% with a hit somewhere; the sample as a whole holds those more often. The source made the active and inactive calls. How the source made its calls: active means growth percent below 10; inactive means the rest.

• COc1cc2c(Oc3ccc4[nH]c(C)cc4c3F)ncnc2cc1OCCCN1CCCC1 = 104% (inactive)
• COc1cc(CCc2cc(NC(=O)c3ccc(N4C[C@@H](C)N[C@@H](C)C4)cc3)n[nH]2)cc(OC)c1 = 17.3% (inactive)
• CS(=O)(=O)CCNCc1ccc(-c2ccc3ncnc(Nc4ccc(OCc5cccc(F)c5)c(Cl)c4)c3c2)o1 = -98.9% (active)
• C=CCCCOC1[C@H](OCc2ccccc2)C(OCc2ccccc2)C(OC)O[C@@H]1CNC(=O)c1cccc(I)c1 (some centres not stated) = -6.8% (active)
• COc1cccc(Nc2ncnn3ccc(CN4CC[C@@H](N)[C@H](O)C4)c23)c1 = 76.2% (inactive)

Inquiry: Return reported growth; argument: OCCNC(=S)Nc1ccc(-c2nc(N3C[C@H]4CC[C@@H](C3)O4)c3cccn3n2)cc1
Reply text: -34.8% (active)

Inquiry: What do you get for CNc1ncc2cc(-c3cc(NC(=O)NCCC(C)(C)C)c(F)cc3C)c(C)nc2n1 ?
Reply text: 23.6% (inactive)

###

# Test system: SNB-19 CNS
# MEASUREMENT_NOTES: NCI-60 one-dose screen, 48 h (100 = growth as untreated, 0 = no growth, -100 = all killed)
# CONDITION_PARAMETERS: 10 µM unless noted
About 83,000 compounds went through this panel and 20% of them were active in at least one assay; those are over-represented in the sample as a whole. Calls of active or inactive are those of the source. The calls were made as follows: active = growth percent below 10; inactive = the rest.
READOUT_LABEL: growth

Example results:
• O=C(CNc1nnc(-c2ccc(Cl)cc2)o1)Nc1ccc(-c2nc3ccccc3s2)cc1 = 90.6% (inactive)
• COc1ccc(C2OC(c3cc(-c4cc5ccccc5o4)nn3-c3ccccc3)=NN2C(C)=O)cc1 (stereo not drawn) = 91.3% (inactive)

Inquiry: Request: growth, test system SNB-19 CNS, entry COc1ccc(CCCc2c3[n+](cc4c(OC)c(OC)ccc24)CCc2cc4c(cc2-3)OCO4)cc1
Reply text: 60.4% (inactive)
